experiment: Concentration in blood after single oral administration to hamster; format: in vivo; details: male, GS, single oral 100 mg/kg, serum
readout.kind: Tmax (h)
Report only the number, with the unit h understood.

Q) Item under review: CC(C)(C)c1cc(C(C)(C)C)c(O)c(NC(=O)c2ccccc2)c1O [compound A] . Reported Tmax?
A) 6
